target: PBP1a from Escherichia coli (Escherichia coli, UniProt P02918)
Construct: made in house
Sequence (P02918 whole entry): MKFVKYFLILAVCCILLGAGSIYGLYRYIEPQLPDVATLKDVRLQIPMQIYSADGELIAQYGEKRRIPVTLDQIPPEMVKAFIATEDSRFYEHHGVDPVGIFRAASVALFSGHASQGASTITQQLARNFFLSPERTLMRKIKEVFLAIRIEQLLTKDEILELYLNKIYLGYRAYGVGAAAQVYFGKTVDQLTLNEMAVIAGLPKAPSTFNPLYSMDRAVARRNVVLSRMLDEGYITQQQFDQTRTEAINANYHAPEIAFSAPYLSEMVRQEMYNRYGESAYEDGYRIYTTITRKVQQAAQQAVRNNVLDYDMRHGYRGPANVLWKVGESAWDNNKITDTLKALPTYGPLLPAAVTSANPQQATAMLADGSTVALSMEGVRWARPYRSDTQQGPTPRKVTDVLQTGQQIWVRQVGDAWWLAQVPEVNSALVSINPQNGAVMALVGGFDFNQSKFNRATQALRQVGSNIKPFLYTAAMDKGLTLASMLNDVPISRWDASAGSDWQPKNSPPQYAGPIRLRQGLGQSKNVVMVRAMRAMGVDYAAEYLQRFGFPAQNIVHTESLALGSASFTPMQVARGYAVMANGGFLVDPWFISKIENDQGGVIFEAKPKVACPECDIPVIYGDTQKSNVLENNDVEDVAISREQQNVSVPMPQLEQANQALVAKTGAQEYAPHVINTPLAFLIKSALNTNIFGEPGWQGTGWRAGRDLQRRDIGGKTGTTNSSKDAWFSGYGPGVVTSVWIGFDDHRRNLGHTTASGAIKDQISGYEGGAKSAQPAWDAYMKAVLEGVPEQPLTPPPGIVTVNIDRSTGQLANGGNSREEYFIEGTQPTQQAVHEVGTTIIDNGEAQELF
protocol: Radioligand competition binding assay with 14C-labeled boronic acid probe (Example 96)
test-parameters: PBP1a/PBP1b 0.1 μM, 96 at 20 μM; assay validation; read-out: EC50 (concentration of inhibitor required to reduce binding of 96 by 50%)
property-measured: EC50

For this molecule ( CC1(C)S[C@@H]2[C@H](NC(=O)[C@H](N)c3ccccc3)C(=O)N2[C@H]1C(=O)O [ampicillin, reference compound] ), measured EC50 is < 500 nM

* * *

Data export: MIC values recorded with hyper-permeable E. coli 901C.

| compound | target | property-measured | test-result |
| --- | --- | --- | --- |
| CCCCN1CCN(C(=O)NC(C(=O)N[C@H]2Cc3cccc(C(=O)O)c3OB2O)c2csc(N)n2)C(=O)C1=O (some centres unmarked) [Example 53] | hyper-permeable E. coli 901C | MIC | < 64 µg/mL |
| CCN1C(=O)CN(C(=O)NC(C(=O)N[C@H]2Cc3cccc(C(=O)O)c3OB2O)c2csc(N)n2)CC1=O (some centres unmarked) [Example 64] | hyper-permeable E. coli 901C | MIC | < 64 µg/mL |
| NCC1CCCN(C(=O)NC(C(=O)N[C@H]2Cc3cccc(C(=O)O)c3OB2O)c2csc(N)n2)C1 (some centres unmarked) [Example 76] | hyper-permeable E. coli 901C | MIC | 64 to 128 µg/mL |

For this compound ( CCN1CCN(C(=O)NC(C(=O)N[C@@H]2Cc3cccc(C(=O)O)c3OB2O)c2csc(N)n2)C(=O)C1=O (some centres unmarked) [Example 33] ), measured MIC is < 64 µg/mL

For this compound ( CCN1CCN(C(=O)N[C@@H](C(=O)N[C@H]2Cc3cccc(C(=O)O)c3OB2O)c2ccccc2)C(=O)C1=O [Example 11] ), measured MIC is < 64 µg/mL

For this compound ( CN1CCN(C(=O)NC(C(=O)N[C@H]2Cc3cccc(C(=O)O)c3OB2O)c2csc(N)n2)C(=O)C1=O (some centres unmarked) [Example 43] ), measured MIC is < 64 µg/mL
